Here, each record is paired with measured EC50 ratio (B5/L7) data.
- tested-on: immunoproteasome (L7) (Homo sapiens)
- test-name: Enzyme kinetic assay of chymotrypsin-like (CT-L) activity, isolated 20S immunoproteasome prep
- Assay type: biochemical
- stated-conditions: 20S ratio: EC50 constitutive / EC50 immunoproteasome; greater than one = prefers immunoproteasome
readout-kind: EC50 ratio (B5/L7)

molecular_string=CC(C)C[C@H](NC(=O)[C@H](Cc1ccccc1)NC(=O)[C@H](CC(C)C)NC(=O)[C@H](CCc1ccccc1)NC(=O)CN1CCOCC1)B(O)O tested_on="immunoproteasome (L7) (Homo sapiens)" assay_value=1.10
molecular_string=C[C@H](NC(=O)CN1CCOCC1)C(=O)N[C@@H](Cc1ccc(O)cc1)C(=O)N[C@@H](Cc1ccccc1)B(O)O tested_on="immunoproteasome (L7) (Homo sapiens)" assay_value=18.34
molecular_string=C[C@H](NC(=O)CN1CCOCC1)C(=O)N[C@@H](Cc1ccc(O)cc1)C(=O)N[C@@H](Cc1ccccc1)C(=O)[C@@]1(C)CO1 tested_on="immunoproteasome (L7) (Homo sapiens)" assay_value=17.04
molecular_string=C[C@@H](NC(=O)CN1CCOCC1)C(=O)N[C@@H](Cc1c[nH]c2ccccc12)C(=O)N[C@@H](Cc1ccccc1)B(O)O tested_on="immunoproteasome (L7) (Homo sapiens)" assay_value=6.49
